apparent KD of MS2 coat protein: recorded values
- Tested on: MS2 coat protein
- run_description: apparent KD of MS2 coat protein; higher = weaker reporter binding
- condition_context: Eterna round: R107; input ligand: none
The answer consists of two parts: a number and, after it, its unit.

In the examples that follow, each entry is paired with its recorded apparent KD of MS2 coat protein.
AGAGUUAGACAAAAGUCUAGCUCACCAGAAGGAGCGUCCGAAAGGACAGGUAGGUCGCUGGUACGUGAGGAUCACCCACGUUCCU [ArgAS 18 #OpenEnded #AlternativeMS2]    24.6 nM
GAUAGAACAAAAGUUUUAUCAGUGGGUGAACGAGGACCGGUACGGCCGCCACUCGGACAUGAGGAUCACCCAUGUCCAUGUGAAA [AstrosExyTryA#17]    18.1 nM
GUGUCCUAGUCGGCCGCCACUGGUACGAAUACCUUCACCCGUGUGCACAUGAGGAUCACCCAUGUCAGGACCGGGACUAGGGUGU [SSTryp B #24]    10 nM
UAAUAAAUAAAUCCAAGGUGAAGGUCAGAUACCAGCCAGAUAACUGGCCCUUGGCAGCUGAAUAAACUUGAGGAACACCCAAGUA [TheoAS 28 #OpenEnded #MS2Late #AlternativeMS2]    23 nM
UUGGCAGCAUGGGUGGCUGCCAAGGCUGAUACCAGCCACGAAAGUGGCCCUUGGCAGCAGCAAACAUGAGGAUCACCCAUGUUAA [(T)''-(M)'-(T)'-(Theo)-(Ms2)_Design3]    86.3 nM

Please turn your attention to the following entry.
Item: UGUGUAAUUGUCUGGUAGAAUUAUUUGUUUCGAGGACCGGUACGGCCGCCACUCGAUAUUUACAUGAGGAUCACCCAUGUUAGCU [JR_SSTryptoA_Sub004] | apparent KD of MS2 coat protein: 14 nM

====

- System: MS2 coat protein
- run_description: apparent KD of MS2 coat protein; designed switch direction (-1 OFF switch, 1 ON switch): -1; higher = weaker reporter binding
- condition_context: input ligand: FMN 200 uM
apparent KD of MS2 coat protein: recorded values
Write it as a number; the unit nM goes unstated.

Item: GACUCGCACUGAGGAUAUCGAAACGAUACGUCGCGAGAAGGCAGAGCGAACAUGAGGAUCACCCAUGUGGGUUCGCCUGAUGUA [Geedinsoma] (Eterna round: R96, puzzle: Exclusion NG 1) | apparent KD of MS2 coat protein: 23.2

====

- Test system: K4 kissing-loop RNA reporter
- run_description: apparent KD of K4 kissing-loop reporter; higher = weaker reporter binding
- condition_context: Eterna round: R107; input ligand: theophylline 20 uM
quantity_kind: apparent KD of K4 kissing-loop reporter (nM)
Write it as a number; the unit nM goes unstated.

In the examples that follow, each entry is paired with its recorded apparent KD of K4 kissing-loop reporter.
UCUGGAGCAUAUGAUACCAGCAGUGAGAGACAGGAAGUAUAGUGAUGUUAUAUGAGAGAAUGCCCUUGGCAGCGUGUGUAGUGGG [SSTheophylB.N]    170
UGUACCGAGUCAGGAUAUGGCGUCGAAAGACGAAUGCUAGUGAUGUUAGGGAUCUGCGAAAGCAGUCCAGAAGGGACUUGGUACU [FmnBS 26 G36]    634
UGACUGGACUGAAGGAGCGCUGAACUCCUAGUGAUGUUAGGAAAACGAGACAAAGUCUCGCGGCAGGUAGGUCGCAGUCUAGUCU    111
UCCUGCAAUCGACCACGAAAGUGGAUCGAUACCAGAGUCGAAAGACUCCCUUGGCAGCGAGUGAUGUUCGAGCAGGUAAAAUAAA [#SwitchBubble 23 #K4Late]    406
GGAUCUUCCAGUGAUGUUGGUUAAUAUAUCAAGGAUAUGACGAAAGUCAGAAGGUGAAAGACUGGACAAAGUCCAGUCGGAUCCA [KL-SSFMN-A19]    444

Item: UGUACCGAGUCAGGAUAUGGCGUCGAAAGACGAAUCUUAGUGAUGUUAGGGAUCUGCGAAAGCAGUCCAGAAGGGACUUGGUACU [FmnBS 26 U37] | apparent KD of K4 kissing-loop reporter: 605

Item: CUCGUGGGUUUGAGAGGGUUUGUGGGAAGUGAGGAUAUUUAGGGAGAAAGAAGGCACUAUAAAAUAUAGUGAUGUUAUAUAAGGG [SSFMNA.L] | apparent KD of K4 kissing-loop reporter: 194

Item: UAUGAAGGUGGAGGAUAUUGAUUGAGCCUUGGUCAGGAGUGAUGUUCCGGGAAGCCUUGGGUUCAUCGAGAAGGCCAAGGAUAGU [#09 K4 FMN B Same State] | apparent KD of K4 kissing-loop reporter: 274

====

apparent KD of K4 kissing-loop reporter: recorded values
- System: K4 kissing-loop RNA reporter
- run_description: apparent KD of K4 kissing-loop reporter; higher = weaker reporter binding
- condition_context: Eterna round: R107; input ligand: tryptophan 2.4 mM
Write it as a number; the unit nM goes unstated.

Item: GGUCCACGCCAUGCCAGUGAUGUUGGUAAGCGAGGACCGGUACGGCCGCCACUCGUUCAAUACCGUAUCGCCCAUAACCUGGAGA [Oneseror] | apparent KD of K4 kissing-loop reporter: 118

Item: CCAUUCUUUUACGAUACCAGUUUAAUAUAUUUAUUCAAAACCCUUGCCGAGUGAUGUUCGGACCCUUGGCAGCGUUUGCGAGAGG [ttedstkmullin] | apparent KD of K4 kissing-loop reporter: 356

Item: UGUACCGAGUCAGGAUAUGGCGUCGAAAGACGAAUGCUAGUGAUGUUAGGGAUCUGCGAAAGCAGUCCAGAAGGGACUUGGUACU [FmnBS 26 G36] | apparent KD of K4 kissing-loop reporter: 649

====

- Tested on: K4 kissing-loop RNA reporter
- run_description: apparent KD of K4 kissing-loop reporter; higher = weaker reporter binding
- condition_context: Eterna round: R107; input ligand: theophylline 20 uM
quantity_kind: apparent KD of K4 kissing-loop reporter (nM)
Write it as a number; the unit nM goes unstated.

AAGUGAUGUUGUAGUGAUGUUGUGAUGUUGCAGGAUAUAUAGUGAUGUAGAAGGGUAUGUACUUAUUUUUUUUUUGAGUUAUGUU [wzzwzrmullin]    46.2
AGGAUGUAGUGAUGUUAUAUAAGAAGUAAACGAGGACCGGUACGGCCGCCACUCGAAGCGGCUACUAGCGUGUUGCGAGGUGCGC [ExTryptoA.Cd]    230
CCAUCGCUAUUCGAUACCAGCUCCUUAGUGAUGUUAAGGUUUUACCCUCUGUAGGAGGGAAGCCCUUGGCAGCGAGUAGUGAUGG [#03 K4 Theophylline B Same State]    623
CUUCGAUUAACGGAUACCAGUCACUUGGGAGCCACACACAAGUGAGUGAUGUUCACUUGUGACCCUUGGCAGCCGUUAGUCGAAG [#05 K4 Theophylline B Exclusion]    157
GAAUCAUGUAGAAGGAGCGUUAGAAGUUAUAGGGAUGAGUGAUGUUUGUGUUAGUAAAUCUGACAGGUAGGUCGCUACAGAAGGA [KL-SSArg B21 #analogue]    132

Form field apparent KD of K4 kissing-loop reporter for item `CUCUUCUUUCUUUUAGUGAUGUUAAAUUAGCGAGGACCGGUACGGCCGCCACUCGUAUAGCUGGAAUGACUGUGCGAGGGUUUGU` on K4 kissing-loop RNA reporter: 522

====

apparent KD of K4 kissing-loop reporter: recorded values
- Tested on: K4 kissing-loop RNA reporter;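 note: bound reporter read as fluorescence of individual clusters on recovered sequencing chips by microscopy, with normalized cluster intensities fitted with a binding model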
- run_description: apparent KD of K4 kissing-loop reporter; higher = weaker reporter binding
- condition_context: Eterna round: R107; input ligand: FMN 200 uM
Write it as a number; the unit nM goes unstated.

In the examples that follow, each entry is paired with its recorded apparent KD of K4 kissing-loop reporter.
GAGGAUAGCGGAAGGAGCGAGUAAUGGAGUGAUGUUCCAAUCAAUAAAACACGAUAGAGUGCUCAGGUAGGUCGCCGUGGUGGUU [Exclusion Argiie B GF 13]    124
UGCAGUGAUGUUGCGAGUGGCAGAUACGAAGGAGCGUGGUGAGACACAGGUAGGUCGCGUAUUGAAAUUGCUGUCACUAAAAUGC [#7]    448
UUGAGCCUGACGGAAGUCAGGCUCUGCGAGCGAGGACCGGUACGGCCGCCACUCGGUGCAGUGAUGUUGCAUGGCCGCAAGGCCG [#2 Exclusion - Tryptophan A Attempt #16 (HarryS)]    311
AAGAGGUAGGCGGCCGCCACUUGUUGUGAACACAUACGAGCCAGUGAUGUUGGUAUUGUGGGCGGAAGGACCGGGCCUACCUGAA [Exclusion - Tryptophan B (Freestyle 20)]    317

Item: GGAUAGGAUAGAGGAUAUGGAAAACACAAAAGUGACUUGUUGUGUUUAUCCAUAGGGAGUGAUGUUCCAGAAGGCUGUCCUAUCG [MatMod 23 - Jieux - Exclusion - FMN B] | apparent KD of K4 kissing-loop reporter: 229

Item: UUUUUUUACUGAAGGAGCGGCAAUUGAUACGUAGAUAUAGUGAUGUUAUAUAAGAUAGAGAGCCAGGUAGGUCGCAGAUUUUUUU [ExArgB.W] | apparent KD of K4 kissing-loop reporter: 153

Item: GAGAUGCACCAGUCUUAACGUGACUUAUCCCGAGGACCGGUACGGCCGCCACUCGCGUACUACUAGUGAUGUUGGUCAGUAUGAG [theeternabot_sameState_KL_Trp_A_26] | apparent KD of K4 kissing-loop reporter: 244
